Taken from patent US20220226508A1.

# Target under test: human 5-HT2AR (Homo sapiens, UniProt P28223)
# Construct: expressed in transfected cells
# Sequence (P28223 whole entry): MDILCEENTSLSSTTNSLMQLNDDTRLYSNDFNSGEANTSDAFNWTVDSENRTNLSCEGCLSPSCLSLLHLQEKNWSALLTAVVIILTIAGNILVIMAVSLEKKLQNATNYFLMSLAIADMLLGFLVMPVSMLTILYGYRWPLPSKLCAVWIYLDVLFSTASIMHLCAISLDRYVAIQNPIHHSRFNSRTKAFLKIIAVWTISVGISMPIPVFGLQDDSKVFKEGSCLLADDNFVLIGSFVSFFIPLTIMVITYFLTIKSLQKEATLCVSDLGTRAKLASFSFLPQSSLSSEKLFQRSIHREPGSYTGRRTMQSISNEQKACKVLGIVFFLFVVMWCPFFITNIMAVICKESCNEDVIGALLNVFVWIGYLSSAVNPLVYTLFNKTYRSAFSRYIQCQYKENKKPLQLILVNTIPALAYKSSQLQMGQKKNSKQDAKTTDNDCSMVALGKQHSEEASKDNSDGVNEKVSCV
# Test method notes: biochemical
# Type: binding
# Run conditions: read-out: binding affinity (Ki) 5-HT2AR
Recorded metric: Ki

{"columns": ["Compound structure", "Recorded metric", "Recorded measurement"],
 "data": [
  ["Clc1ccc(Cn2c(CN3CCOCC3)nc3ccccc32)cc1", "Ki", "> 10 µM"],
  ["c1ccc(Cn2c(CN3CCCC3)nc3ccccc32)cc1", "Ki", "0.327 µM"],
  ["c1cn(CC2CCCCC2)c(CN2CCCC2)n1", "Ki", "> 10 µM"],
  ["CN1CCN(Cc2nc3ccccc3n2Cc2ccc(Cl)cc2)CC1", "Ki", "0.316 µM"],
  ["FC1(F)CCC(Cn2c(CN3CCCC3)nc3ccccc32)CC1", "Ki", "> 10 µM"],
  ["Clc1ccc(Cn2c(CC3CCCC3)nc3ccccc32)cc1", "Ki", "> 10 µM"],
  ["Clc1ccc(Cn2c(CN3CCSC3)nc3ccccc32)cc1", "Ki", "> 10 µM"],
  ["FC(F)(F)c1ccc(Cn2c(CN3CCCC3)nc3ccccc32)cc1", "Ki", "> 10 µM"],
  ["N#Cc1cccc(Cn2c(CN3CCCC3)nc3ccccc32)c1", "Ki", "> 10 µM"],
  ["Clc1ccc(Cn2c(CN3CCCCC3)nc3ccccc32)cc1", "Ki", "0.623 µM"]
]}

* * *

# Target under test: human 5-HT2CR (Homo sapiens, UniProt P28335)
# Construct: expressed in transfected cells
# Sequence (P28335 33-458): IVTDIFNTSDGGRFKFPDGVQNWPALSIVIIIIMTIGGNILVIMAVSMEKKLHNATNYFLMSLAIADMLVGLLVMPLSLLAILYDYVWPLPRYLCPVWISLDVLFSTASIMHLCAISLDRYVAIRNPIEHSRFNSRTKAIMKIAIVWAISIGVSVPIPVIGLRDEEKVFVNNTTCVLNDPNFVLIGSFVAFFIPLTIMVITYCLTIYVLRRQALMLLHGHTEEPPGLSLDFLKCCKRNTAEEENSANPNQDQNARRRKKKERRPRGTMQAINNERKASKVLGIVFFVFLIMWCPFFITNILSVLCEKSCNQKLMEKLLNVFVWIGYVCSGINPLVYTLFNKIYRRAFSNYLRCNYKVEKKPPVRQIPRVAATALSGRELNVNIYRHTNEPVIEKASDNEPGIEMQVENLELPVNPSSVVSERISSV
# Test method notes: Radioligand binding assay (NIMH PDSP), 5-HT2CR
Ki by entry:

{"columns": ["Compound structure", "Ki"],
 "data": [
  ["c1ccc2c(c1)nc(CN1CCCC1)n2CC1CCOCC1", "> 10 µM"],
  ["c1ccc2c(c1)nc(CN1CCCC1)n2CC1CCCCC1", "> 10 µM"]
]}

* * *

# Target under test: human 5-HT2BR (Homo sapiens, UniProt P41595)
# Construct: expressed in transfected cells
# Sequence (P41595 whole entry): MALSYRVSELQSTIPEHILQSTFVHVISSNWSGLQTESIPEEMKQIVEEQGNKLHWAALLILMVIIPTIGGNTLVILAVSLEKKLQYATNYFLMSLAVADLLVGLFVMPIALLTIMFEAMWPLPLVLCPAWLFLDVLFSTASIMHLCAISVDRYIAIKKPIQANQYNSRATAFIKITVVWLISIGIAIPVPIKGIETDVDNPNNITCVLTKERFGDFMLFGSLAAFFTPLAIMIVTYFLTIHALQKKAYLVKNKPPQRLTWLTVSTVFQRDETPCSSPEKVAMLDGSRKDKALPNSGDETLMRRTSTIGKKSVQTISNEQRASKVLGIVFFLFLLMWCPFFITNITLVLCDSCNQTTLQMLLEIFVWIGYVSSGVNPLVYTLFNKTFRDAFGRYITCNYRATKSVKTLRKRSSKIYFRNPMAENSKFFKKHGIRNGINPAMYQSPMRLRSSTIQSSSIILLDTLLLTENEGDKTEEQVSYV
# Test method notes: biochemical
# Type: binding
# Run conditions: read-out: binding affinity (Ki) 5-HT2BR
pKi: −log10 of the molar value.
Recorded metric: pKi

{"columns": ["Compound", "Recorded metric", "Rel", "Recorded measurement"],
 "data": [
  ["N#Cc1cccc(Cn2c(CN3CCCC3)nc3ccccc32)c1 [Compound 10]", "pKi", "<", 5.00],
  ["Clc1ccc(Cn2c(CN3CCOCC3)nc3ccccc32)cc1 [Compound 23]", "pKi", "=", 6.29],
  ["Nc1ccc(Cn2c(CN3CCCC3)nc3ccccc32)cc1 [Compound 14]", "pKi", "=", 6.22],
  ["Clc1ccc(Cn2c(CN3CCSC3)nc3ccccc32)cc1 [Compound 28]", "pKi", "=", 6.33],
  ["Clc1ccc(Cn2c(CN3CCCCC3)nc3ccccc32)cc1 [Compound 22]", "pKi", "=", 6.51]
]}

* * *

pKi by entry:
# Target under test: human 5-HT2AR (Homo sapiens)
# Construct: expressed in transfected cells
# Test method notes: biochemical
# Type: binding
pKi: −log10 of the molar value.

{"columns": ["Compound structure", "pKi"],
 "data": [
  ["c1ccc2c(c1)nc(CN1CCCC1)n2CC1CCCCC1", "< 5.00"],
  ["c1ccc2c(c1)nc(CN1CCCC1)n2CC1CCOCC1", "< 5.00"]
]}

* * *

# Target under test: human H1 receptor (Homo sapiens)
# Test method notes: Radioligand binding assay (NIMH PDSP), H1
# Design: expressed in transfected cells
# Run conditions: read-out: binding affinity (Ki) H1

{"columns": ["Molecule", "Target under test", "Rel", "Ki / nM"],
 "data": [
  ["CCCn1c(CN2CCCC2)nc2ccccc21 [Compound 5]", "human H1 receptor (Homo sapiens)", "=", 362],
  ["CN1CCN(Cc2nc3ccccc3n2Cc2ccc(Cl)cc2)CC1 [Compound 26]", "human H1 receptor (Homo sapiens)", "=", 1.2],
  ["c1ccc(Cn2c(CN3CCCC3)nc3ccccc32)cc1 [Compound 3]", "human H1 receptor (Homo sapiens)", "=", 4.8],
  ["N#Cc1cccc(Cn2c(CN3CCCC3)nc3ccccc32)c1 [Compound 10]", "human H1 receptor (Homo sapiens)", "=", 351],
  ["FC1(F)CCC(Cn2c(CN3CCCC3)nc3ccccc32)CC1 [Compound 17]", "human H1 receptor (Homo sapiens)", "=", 137],
  ["Fc1ccc(Cn2c(CN3CCCC3)nc3ccccc32)cc1 [Compound 7]", "human H1 receptor (Homo sapiens)", "=", 1],
  ["Clc1ccc(Cn2c(CN3CCSC3)nc3ccccc32)cc1 [Compound 28]", "human H1 receptor (Homo sapiens)", "=", 44],
  ["Clc1ccc(Cn2c(CN3CCOCC3)nc3ccccc32)cc1 [Compound 23]", "human H1 receptor (Homo sapiens)", "=", 34],
  ["c1cn(CC2CCCCC2)c(CN2CCCC2)n1 [Compound 21]", "human H1 receptor (Homo sapiens)", ">", 10000],
  ["Nc1ccc(Cn2c(CN3CCCC3)nc3ccccc32)cc1 [Compound 14]", "human H1 receptor (Homo sapiens)", "=", 27],
  ["Clc1ccc(Cn2c(CN3CCCCC3)nc3ccccc32)cc1 [Compound 22]", "human H1 receptor (Homo sapiens)", "=", 8.5]
]}

* * *

# Target under test: human H1 receptor (Homo sapiens)
# Test method notes: Radioligand binding assay (NIMH PDSP), H1
# Design: expressed in transfected cells
Recorded metric: Ki (nM)

{"columns": ["Compound structure", "Recorded measurement"],
 "data": [
  ["c1ccc2c(c1)nc(CN1CCCC1)n2CC1CCOCC1", 865]
]}

* * *

# Target under test: human 5-HT2CR (Homo sapiens)
# Construct: expressed in transfected cells
# Test method notes: Radioligand binding assay (NIMH PDSP), 5-HT2CR
# Run conditions: clemizole analogs; recombinant human receptor; read-out: binding affinity (Ki) 5-HT2CR
pKi: −log10 of the molar value.
Outcome: 1 (yes) for pKi of at least 6; 0 (no) for anything lower.

{"columns": ["Compound structure", "Target under test", "Category label"],
 "data": [
  ["Clc1ccc(Cn2c(CN3CCCC3)cc3ccccc32)cc1", "human 5-HT2CR (Homo sapiens)", "1 (yes)"],
  ["Clc1ccc(Cn2ccnc2CN2CCCC2)cc1", "human 5-HT2CR (Homo sapiens)", "1 (yes)"],
  ["CC(C)(C)OC(=O)N1CCN(Cc2nc3ccccc3n2Cc2ccc(Cl)cc2)CC1", "human 5-HT2CR (Homo sapiens)", "0 (no)"],
  ["Clc1ccc(Cn2c(CC3CCCC3)nc3ccccc32)cc1", "human 5-HT2CR (Homo sapiens)", "0 (no)"]
]}

* * *

# Target under test: human 5-HT2BR (Homo sapiens, UniProt P41595)
# Construct: expressed in transfected cells
# Test method notes: biochemical
# Format: binding
# Run conditions: clemizole analogs; recombinant human receptor; listed as Comp. 6; read-out: binding affinity (Ki) 5-HT2BR

{"columns": ["Compound structure", "Target under test", "Ki / nM"],
 "data": [
  ["FC(F)(F)c1ccc(Cn2c(CN3CCCC3)nc3ccccc32)cc1", "human 5-HT2BR (Homo sapiens, UniProt P41595)", 258]
]}

* * *

# Target under test: human H1 receptor (Homo sapiens, UniProt P35367)
# Sequence (P35367 whole entry): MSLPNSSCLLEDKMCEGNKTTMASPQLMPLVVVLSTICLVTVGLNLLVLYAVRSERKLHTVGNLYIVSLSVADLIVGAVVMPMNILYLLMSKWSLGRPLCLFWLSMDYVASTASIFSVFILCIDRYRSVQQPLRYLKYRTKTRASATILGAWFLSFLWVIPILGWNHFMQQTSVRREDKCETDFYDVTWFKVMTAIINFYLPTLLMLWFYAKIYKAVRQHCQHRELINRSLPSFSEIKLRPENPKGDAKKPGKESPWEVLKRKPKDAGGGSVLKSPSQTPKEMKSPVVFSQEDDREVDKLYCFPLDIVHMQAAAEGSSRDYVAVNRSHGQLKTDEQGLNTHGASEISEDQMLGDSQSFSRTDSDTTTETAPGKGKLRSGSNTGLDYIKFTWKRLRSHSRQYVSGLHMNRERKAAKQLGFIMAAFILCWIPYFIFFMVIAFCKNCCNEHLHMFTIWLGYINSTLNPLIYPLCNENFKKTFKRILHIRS
# Test method notes: Radioligand binding assay (NIMH PDSP), H1
# Parameters: expressed in transfected cells
# Run conditions: clemizole analogs; recombinant human receptor; read-out: binding affinity (Ki) H1
Please assign class 0 whenever Ki is at or above 0.02 µM, and class 1 whenever it is below.

{"columns": ["Molecule", "Target under test", "Category label"],
 "data": [
  ["CCN(CC)Cc1nc2ccccc2n1Cc1ccc(Cl)cc1 [Compound 24]", "human H1 receptor (Homo sapiens, UniProt P35367)", "class 1"],
  ["CC(C)(C)OC(=O)N1CCN(Cc2nc3ccccc3n2Cc2ccc(Cl)cc2)CC1 [Compound 25]", "human H1 receptor (Homo sapiens, UniProt P35367)", "class 0"],
  ["c1ccc2c(c1)nc(CN1CCCC1)n2CC1CCCCC1 [Compound 4]", "human H1 receptor (Homo sapiens, UniProt P35367)", "class 0"],
  ["FC(F)(F)c1ccc(Cn2c(CN3CCCC3)nc3ccccc32)cc1 [Compound 6]", "human H1 receptor (Homo sapiens, UniProt P35367)", "class 1"],
  ["Clc1ccc(Cn2ccnc2CN2CCCC2)cc1 [Compound 9]", "human H1 receptor (Homo sapiens, UniProt P35367)", "class 0"],
  ["Clc1ccc(Cn2c(CN3CCCC3)cc3ccccc32)cc1 [Compound 11]", "human H1 receptor (Homo sapiens, UniProt P35367)", "class 1"],
  ["c1ccc2c(c1)nc(CN1CCCC1)n2CC1CCCC1 [Compound 20]", "human H1 receptor (Homo sapiens, UniProt P35367)", "class 0"]
]}
